# experimental-target: WDR5 (Homo sapiens, UniProt P61964)
# test-summary: biolayer interferometry
pKd: −log10 of the molar value.
readout-name: pKd

> print(dat)
                     binder  value
1  LNPHGAARAEVYLR [MLL4Win]   6.34
